# Target entity: HAKAI;WTAP;VIRMA;ZC3H13 (1106-1668) (Homo sapiens;Homo sapiens;Homo sapiens;Homo sapiens) (UniProt Q75N03+Q15007+Q69YN4+Q5T200)
# Sequence (Q75N03 whole entry, chain 1 of 4): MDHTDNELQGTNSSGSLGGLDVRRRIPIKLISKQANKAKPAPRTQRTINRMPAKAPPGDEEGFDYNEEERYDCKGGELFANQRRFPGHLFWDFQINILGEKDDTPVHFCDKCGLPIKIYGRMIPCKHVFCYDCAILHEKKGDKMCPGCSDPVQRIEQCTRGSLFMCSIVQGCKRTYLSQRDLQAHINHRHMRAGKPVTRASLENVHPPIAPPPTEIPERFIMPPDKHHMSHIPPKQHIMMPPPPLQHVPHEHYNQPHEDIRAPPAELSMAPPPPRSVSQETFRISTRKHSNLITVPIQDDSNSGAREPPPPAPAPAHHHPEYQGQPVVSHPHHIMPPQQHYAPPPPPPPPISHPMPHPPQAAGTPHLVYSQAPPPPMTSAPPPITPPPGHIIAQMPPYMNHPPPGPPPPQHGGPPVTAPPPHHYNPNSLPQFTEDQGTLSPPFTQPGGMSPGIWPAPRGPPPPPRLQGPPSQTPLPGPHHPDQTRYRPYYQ
# Sequence (Q15007 whole entry, chain 2 of 4): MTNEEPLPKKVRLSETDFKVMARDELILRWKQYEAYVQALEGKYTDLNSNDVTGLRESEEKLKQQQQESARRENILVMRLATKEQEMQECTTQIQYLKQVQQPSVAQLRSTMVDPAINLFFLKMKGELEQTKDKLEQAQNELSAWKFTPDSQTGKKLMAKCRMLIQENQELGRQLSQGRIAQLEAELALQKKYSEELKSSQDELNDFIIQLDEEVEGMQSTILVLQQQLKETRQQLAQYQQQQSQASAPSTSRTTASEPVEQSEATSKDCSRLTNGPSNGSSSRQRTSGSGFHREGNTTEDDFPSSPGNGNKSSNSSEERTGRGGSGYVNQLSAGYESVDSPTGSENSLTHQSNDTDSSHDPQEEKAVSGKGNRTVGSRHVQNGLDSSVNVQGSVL
# Sequence (Q69YN4 whole entry, chain 3 of 4): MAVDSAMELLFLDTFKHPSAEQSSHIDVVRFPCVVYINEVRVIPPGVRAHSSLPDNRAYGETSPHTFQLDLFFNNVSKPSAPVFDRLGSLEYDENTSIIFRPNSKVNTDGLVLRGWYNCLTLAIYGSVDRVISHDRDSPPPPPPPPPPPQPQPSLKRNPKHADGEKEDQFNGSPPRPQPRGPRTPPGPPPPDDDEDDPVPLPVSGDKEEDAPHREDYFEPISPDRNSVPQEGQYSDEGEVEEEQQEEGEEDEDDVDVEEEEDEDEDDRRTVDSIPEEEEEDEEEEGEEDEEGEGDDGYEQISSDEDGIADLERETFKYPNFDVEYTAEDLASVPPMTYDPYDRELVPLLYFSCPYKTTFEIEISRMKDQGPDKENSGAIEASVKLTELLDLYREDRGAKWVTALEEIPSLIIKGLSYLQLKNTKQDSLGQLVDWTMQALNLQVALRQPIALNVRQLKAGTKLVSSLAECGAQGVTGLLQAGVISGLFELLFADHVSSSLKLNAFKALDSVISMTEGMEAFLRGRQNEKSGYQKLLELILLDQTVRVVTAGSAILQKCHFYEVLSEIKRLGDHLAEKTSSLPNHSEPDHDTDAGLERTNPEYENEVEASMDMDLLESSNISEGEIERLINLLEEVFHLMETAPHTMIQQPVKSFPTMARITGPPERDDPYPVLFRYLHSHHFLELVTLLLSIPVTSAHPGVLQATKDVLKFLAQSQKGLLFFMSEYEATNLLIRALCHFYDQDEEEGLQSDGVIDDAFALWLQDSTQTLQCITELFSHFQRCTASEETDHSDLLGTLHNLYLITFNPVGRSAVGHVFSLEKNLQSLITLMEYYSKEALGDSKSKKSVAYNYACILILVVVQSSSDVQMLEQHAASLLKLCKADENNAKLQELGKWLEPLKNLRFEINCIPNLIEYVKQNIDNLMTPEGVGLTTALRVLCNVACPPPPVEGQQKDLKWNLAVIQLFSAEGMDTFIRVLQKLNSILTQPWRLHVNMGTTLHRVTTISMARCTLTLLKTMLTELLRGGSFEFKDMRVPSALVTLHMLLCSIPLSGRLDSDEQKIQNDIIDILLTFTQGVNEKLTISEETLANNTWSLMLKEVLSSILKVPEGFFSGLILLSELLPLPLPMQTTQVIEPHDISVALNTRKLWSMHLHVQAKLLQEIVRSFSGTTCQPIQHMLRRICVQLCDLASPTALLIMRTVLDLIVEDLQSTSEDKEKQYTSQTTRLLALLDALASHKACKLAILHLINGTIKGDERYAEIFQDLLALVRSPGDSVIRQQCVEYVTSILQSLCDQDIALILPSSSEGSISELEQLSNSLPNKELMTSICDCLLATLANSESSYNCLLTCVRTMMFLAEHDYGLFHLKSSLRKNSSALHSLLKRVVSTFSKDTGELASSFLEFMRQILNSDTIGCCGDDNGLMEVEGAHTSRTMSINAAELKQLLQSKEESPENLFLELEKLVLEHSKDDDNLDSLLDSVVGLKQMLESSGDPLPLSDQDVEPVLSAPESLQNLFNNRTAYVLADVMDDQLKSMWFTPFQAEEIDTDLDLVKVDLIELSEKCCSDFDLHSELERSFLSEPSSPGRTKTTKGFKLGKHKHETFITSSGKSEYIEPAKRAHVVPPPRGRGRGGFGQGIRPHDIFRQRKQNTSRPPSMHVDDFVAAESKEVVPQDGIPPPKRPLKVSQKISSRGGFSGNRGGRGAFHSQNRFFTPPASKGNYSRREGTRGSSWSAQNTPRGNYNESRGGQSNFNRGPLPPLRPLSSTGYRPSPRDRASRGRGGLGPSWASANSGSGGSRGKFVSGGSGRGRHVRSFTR
# Sequence (Q5T200 1106-1668, chain 4 of 4): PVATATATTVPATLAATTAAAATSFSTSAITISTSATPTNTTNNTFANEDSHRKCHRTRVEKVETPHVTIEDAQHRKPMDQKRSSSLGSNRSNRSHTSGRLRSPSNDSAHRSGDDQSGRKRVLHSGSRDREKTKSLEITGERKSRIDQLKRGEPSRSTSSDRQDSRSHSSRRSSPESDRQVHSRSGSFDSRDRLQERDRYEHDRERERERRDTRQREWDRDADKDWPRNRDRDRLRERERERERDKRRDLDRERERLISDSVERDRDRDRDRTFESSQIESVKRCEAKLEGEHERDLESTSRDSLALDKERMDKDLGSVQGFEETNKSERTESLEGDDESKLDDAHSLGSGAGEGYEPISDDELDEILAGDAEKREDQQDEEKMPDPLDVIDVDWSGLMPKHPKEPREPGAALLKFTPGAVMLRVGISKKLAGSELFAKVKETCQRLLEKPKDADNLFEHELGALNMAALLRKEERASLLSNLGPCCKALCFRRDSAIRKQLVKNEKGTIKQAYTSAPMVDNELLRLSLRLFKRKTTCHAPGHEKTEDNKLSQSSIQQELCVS
# Assay overview: EMSA
# Assay setup: HWVZ; EMSA: 5 nM FAM-RNA, 20 mM HEPES pH 7.5, 100 mM KCl, 10% glycerol, 1 mM DTT, 25 C, 20 min; 8% native PAGE in 1x TBE at 4 C; Kd from loss of free RNA, Hill fit …
Readout label: Kd (nM)
Give bare numbers, in nM.

Ask: Endpoint output: Kd of GGCCCCUCCAUCGUCCACCGCAAAUGCUUCUAGGCGGACUAUGACUUAGUUGCGUUACACCCUUUCUUGACAAAACCUAACUUGCACAGAAAACA [ACTB-1 RNA] . Value?
Result: 214

====

# Target entity: WTAP;VIRMA;ZC3H13 (1106-1668) (Homo sapiens;Homo sapiens;Homo sapiens) (UniProt Q15007+Q69YN4+Q5T200)
# Sequence (Q15007 whole entry, chain 1 of 3): as the sequence (Q15007 whole entry, chain 2 of 4) above
# Sequence (Q69YN4 whole entry, chain 2 of 3): as the sequence (Q69YN4 whole entry, chain 3 of 4) above
# Sequence (Q5T200 1106-1668, chain 3 of 3): as the sequence (Q5T200 1106-1668, chain 4 of 4) above
# Assay overview: EMSA
# Assay setup: WVZ (no HAKAI); EMSA: 5 nM FAM-RNA, 20 mM HEPES pH 7.5, 100 mM KCl, 10% glycerol, 1 mM DTT, 25 C, 20 min; 8% native PAGE in 1x TBE at 4 C; Kd from loss of free RNA, Hill fit …
Readout label: pKd
Answers are plain numbers, as −log10 of the molar value.

Ask: Endpoint output: pKd of GGCCCCUCCAUCGUCCACCGCAAAUGCUUCUAGGCGGACUAUGACUUAGUUGCGUUACACCCUUUCUUGACAAAACCUAACUUGCACAGAAAACA [ACTB-1 RNA] . Value?
Result: 6.59
